- System Tested: TEM-1 β-lactamase (purified) (UniProt P62593 24-286)
- Sequence (P62593 24-286): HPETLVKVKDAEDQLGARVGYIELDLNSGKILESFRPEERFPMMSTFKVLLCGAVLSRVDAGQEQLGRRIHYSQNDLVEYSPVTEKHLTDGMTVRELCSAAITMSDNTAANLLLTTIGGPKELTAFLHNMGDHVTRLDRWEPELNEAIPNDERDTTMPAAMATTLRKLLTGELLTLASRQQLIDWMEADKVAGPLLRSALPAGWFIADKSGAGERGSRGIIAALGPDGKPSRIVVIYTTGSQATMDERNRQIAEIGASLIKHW
- Assay: enzyme inhibition assay
Assign Ki to each entry below.
Numbers only, in nM.

Binder	Units Label	Ki
BLIP W112D (natural protein) AGVMTGAKFTQIQFGMTRQQVLDIAGAENCETGGSFGDSIHCRGHAAGDYYAYATFGFTSAAADAKVDSKSQEKLLAPSAPTLTLAKFNQVTVGMTRAQVLATVGQGSCTTDSEYYPAYPSTAGVTLSLSCFDVDGYSSTGFYRGSAHLWFTDGVLQGKRQWDLV	nM	1270
BLIP K74T (natural protein) AGVMTGAKFTQIQFGMTRQQVLDIAGAENCETGGSFGDSIHCRGHAAGDYYAYATFGFTSAAADAKVDSKSQETLLAPSAPTLTLAKFNQVTVGMTRAQVLATVGQGSCTTWSEYYPAYPSTAGVTLSLSCFDVDGYSSTGFYRGSAHLWFTDGVLQGKRQWDLV	nM	151
BLIP R160G (natural protein) AGVMTGAKFTQIQFGMTRQQVLDIAGAENCETGGSFGDSIHCRGHAAGDYYAYATFGFTSAAADAKVDSKSQEKLLAPSAPTLTLAKFNQVTVGMTRAQVLATVGQGSCTTWSEYYPAYPSTAGVTLSLSCFDVDGYSSTGFYRGSAHLWFTDGVLQGKGQWDLV	nM	236

Now look at this one.
Please look up its Ki: BLIP E73K (natural protein) AGVMTGAKFTQIQFGMTRQQVLDIAGAENCETGGSFGDSIHCRGHAAGDYYAYATFGFTSAAADAKVDSKSQKKLLAPSAPTLTLAKFNQVTVGMTRAQVLATVGQGSCTTWSEYYPAYPSTAGVTLSLSCFDVDGYSSTGFYRGSAHLWFTDGVLQGKRQWDLV
2530

These measurements were taken from paper PMC5656002.
